target: CDK2/CyclinA (Homo sapiens (Human), UniProt P24941); test: CDK2/CyclinA kinase assay (Nanosyn, Caliper microfluidic); type: biochemical; conditions: Table 2
Examples of compounds with documented Fold Selectivity (CDK2/CycA/CDK4) follow.

compound: CC(C)N1CCN(c2ccc(Nc3ncc4cc5n(c4n3)C3(CCCCC3)CNC5=O)nc2)CC1C (centres unmarked)
Fold Selectivity (CDK2/CycA/CDK4): 984

Entry C[C@@H]1CN(c2ccc(Nc3ncc4cc5n(c4n3)C3(CCCCC3)CNC5=O)nc2)CCN1 , system CDK2/CyclinA (Homo sapiens (Human), UniProt P24941): what Fold Selectivity (CDK2/CycA/CDK4) was measured?
745

Entry CCC(C)CN1CCN(c2ccc(Nc3ncc4cc5n(c4n3)C3(CCCC3)CNC5=O)nc2)CC1 (centres unmarked) [FFF] , system CDK2/CyclinA (Homo sapiens (Human), UniProt P24941): what Fold Selectivity (CDK2/CycA/CDK4) was measured?
291

Entry CC(C)C1CN(c2ccc(Nc3ncc4cc5n(c4n3)C3(CCCCC3)CNC5=O)nc2)CCN1 (centres unmarked) , system CDK2/CyclinA (Homo sapiens (Human), UniProt P24941): what Fold Selectivity (CDK2/CycA/CDK4) was measured?
202
